experiment: Inhibition of Hepatitis C virus genotype 1b Con1 NS5B Cdelta21 polymerase assessed as incorporation of [33P]-CTP into heteropolymer RNA template after 2 hrs; parameters: species or system Hepacivirus hominis; settings: Con1, 2 h
I'd appreciate it if you marked entries y when IC50 is lower than 4 µM and n when it is not.

API: query returns whether the compound falls strictly under 4 µM in IC50. Query: Cc1c(F)ccc(F)c1C(=O)Nc1ccc(C(C)C)cc1N1CCN(c2cnccn2)CC1
n

Check if IC50 falls below 4 µM for CC(C)c1ccc(NC(=O)c2cccnc2)c(N2CCN(c3cncc(-c4ccccc4)n3)CC2)c1 .
n

For this compound, is IC50 lower than 4 µM? Cc1ncccc1C(=O)Nc1ccc(C(C)C)cc1N1CCN(c2ncnc3[nH]ccc23)CC1
y

In plain terms, does Cc1oncc1C(=O)Nc1ccc(C(C)C)cc1N1CCN(c2cnccn2)CC1 come in under 4 µM for IC50?
n

Quick check: IC50 of Cc1cnc(C(=O)Nc2ccc(C(C)C)cc2N2CCN(c3cnccn3)CC2)cn1 under 4 µM?
n

Now turn to the next compound.
IC50 under 4 µM? Item: Cc1ncsc1C(=O)Nc1ccc(C(C)C)cc1N1CCN(c2cnccn2)CC1
y
